Test system: CCRF-CEM leukemia
Method description: NCI tumour cell line growth inhibition, 48 h
Quick list: TGI per entry.
Metric name: TGI (µM)

Compound | Target | Unit string | Readout qualifier | Result number
CC(=O)Nc1ccccc1-c1nc2ccccc2nc1C | CCRF-CEM leukemia | µM | > | 100
CC(=O)N(C)c1ccc(N=CN(C)C)cc1 | CCRF-CEM leukemia | µM | > | 100
Nc1c(-c2cn(Cc3ccccc3)c3ccccc23)[n+]([O-])c2ccccc2[n+]1[O-] | CCRF-CEM leukemia | µM | > | 100
COC1C(CO)OC(n2c3ccccc3c3c4c(c5c6ccccc6[nH]c5c32)C(=O)NC4=O)C(O)C1O (stereo not given) | CCRF-CEM leukemia | µM | = | 2.42
COc1cc2c(cc1C[C@H]1[C@@H]3C[C@H]4c5c(c6ccccc6n5C)C[C@@H]([C@@H]3CO[C@]1(C)OC(C)=O)N4C)c1c(n2C)C2C[C@H]3C(C(C)=O)=COC[C@H]3[C@H](C1)N2C | CCRF-CEM leukemia | µM | = | 5.84

* * *

Test system: SK-OV-3 ovarian
Method description: NCI tumour cell line growth inhibition, 48 h
Metric name: TGI (µM)

Compound | Unit string | Readout qualifier | Result number
COc1c(O)c(OC)c2oc(-c3ccc(O)c(O)c3)c(OC)c(=O)c2c1O | µM | = | 54.4
COc1ccc2c(c1)[n+]([O-])c(-c1ccc([N+](=O)[O-])cc1)c(N)[n+]2[O-] | µM | > | 100
CN1CCC(COc2cnc(-c3cccc(Cn4nc(-c5cccc(C#N)c5)ccc4=O)c3)nc2)CC1 | µM | = | 18.5
COC1OC(CO)C(O)C(OC(C)=O)C1NC(=O)N(CCCl)N=O (centres undefined) | µM | > | 100

* * *

Examples of compounds with documented TGI follow.
System: NCI-H23 lung
Method description: NCI tumour cell line growth inhibition, 48 h

Compound | TGI
Cc1ccc2c(=O)cc(Cc3cccs3)[nH]c2n1 | > 100 µM
O=[N+]([O-])c1ccc2nc(Cl)n[n+]([O-])c2c1 | 36.6 µM
COc1ccc(OC)c(CSc2ccc(OC)c(OC)c2)c1 | > 100 µM
Cc1cc(=O)[nH]c(N/N=C/c2cc(Br)ccc2O)n1 | > 100 µM
CCOC(=O)C1SC(=Nc2cccc(Cl)c2C)N=C1C (stereo unspecified) | > 10 µM
CC12OOC(c3ccccc31)c1c2ccc2ccccc12 (stereo unspecified) | 26.6 µM
O=c1[nH]nc(Cc2ccc(Cl)cc2)n1/N=C/c1ccco1 | > 100 µM
O=C1C(Cl)=C(Sc2nnc3c4ccccc4c4ccccc4c3n2)C(=O)c2ccccc21 | 19.4 µM
COc1nc2ccc(COc3ccc(C(=O)NC(CCC(=O)O)C(=O)O)cc3)cc2nc1OC (stereo unspecified) | > 10 µM
Cc1cc(O)c2c(c1O)C(=O)c1cccc(O)c1C2=O | > 100 µM
CC(C)(C)c1cc(-c2cc(C(C)(C)C)[nH]n2)n[nH]1 | > 100 µM

* * *

Tested on: SK-MEL-2 melanoma
Method description: NCI tumour cell line growth inhibition, 48 h

Compound | Unit string | Readout qualifier | TGI
COc1ccc(CC2C3=C(CCN2C(=O)C2CCC2)CC2(CC3)OCCO2)cc1O (stereo not given) | µM | > | 100
N#C[C@H](C(=O)c1ccccc1F)c1nc2ccccc2s1 | µM | = | 51.1
COc1ccc(N=Cc2c(O)ccc3c2oc2cc(Cl)c(O)c(Cl)c23)cc1 | µM | = | 22.9
Oc1ccc2c(c1)CCc1c-2n(CCN2CCOCC2)c2ccc(O)cc12 | µM | = | 70.9
CCCCCCCC/C=C/CCCCCCCC1=NC(C)(C)CN1CC(C)O (stereo not given) | µM | = | 5.21
CC1=NN(c2nc(N)nc(CBr)n2)C(C)(C)C1 | µM | = | 26.2
O=C(c1ccccc1)c1ccc(N2C(=O)/C(=C/Cc3ccco3)N=C2c2ccccc2)c(N2C(=O)/C(=C/Cc3ccco3)N=C2c2ccccc2)c1 | µM | = | 58.6
CC(C)(C)c1cc(-c2cc(C(C)(C)C)[nH]n2)n[nH]1 | µM | > | 100
CCOP(=O)(OCC)C(C)(C)N(C)/C(F)=N/C(F)(F)F | µM | > | 100
C=CCc1[nH]c2c(OCc3ccccc3)cc(N(CC=C)C(C)=O)cc2c1C | µM | = | 26.1

* * *

Tested on: UO-31 renal
Method description: NCI tumour cell line growth inhibition, 48 h

Compound | TGI
C=C(C)[C@@H]1CC[C@]2(COCCC#N)CC[C@]3(C)[C@H](CC[C@@H]4[C@@](C)(CCCNCCC#N)[C@H](C(=C)C)CC[C@]43C)[C@@H]12 | > 50 µM
c1ccc2c(c1)NCCC(=NC1CCCCC1)N2 | > 100 µM
Cc1ccc(Cl)cc1Nc1nc(C(F)(F)F)ccc1C(=O)N/N=C/c1cccnc1 | 16.2 µM
COc1ccc(N=C2S/C(=N\C(=Nc3ccccc3)SCc3ccccc3)N(c3ccccc3)C2=Nc2ccc(OC)cc2)cc1 | > 100 µM
CC(=O)OC(CN1CCN(c2ccccn2)CC1)Cn1sc2nc(C)cc(C)c2c1=O (centres undefined) | 30.2 µM
COC(=O)/C(=N\NC(N)=O)C(C(=O)C(=O)Nc1ccccc1OC)c1nc2ccc([N+](=O)[O-])cc2[nH]c1=O (centres undefined) | > 100 µM
CC[C@@H]1ON(C)[C@H]2CN(C)C(=O)[C@@H]12 | > 100 µM
O=C(O)CSC(CC1(c2ccc(Cl)cc2)NC(=O)CS1)c1ccc(Cl)cc1 (centres undefined) | > 100 µM
COc1ccc(CC2C3=C(CCN2C(=O)C2CCC2)CC2(CC3)OCCO2)cc1O (centres undefined) | 1.49 µM
CCC(CC)c1nc(Nc2ccc(C(=O)OC)cc2)c2ccccc2n1 | 15.4 µM
O=C(c1ccccc1)c1ccc(N2C(=O)/C(=C/Cc3ccco3)N=C2c2ccccc2)c(N2C(=O)/C(=C/Cc3ccco3)N=C2c2ccccc2)c1 | > 100 µM
CCCCCCCCOCC(O)COC(C)C (centres undefined) | > 100 µM
O=C(O)CSCc1cc2c(O)c(c1)Cc1cc(CSCC(=O)O)cc(c1O)Cc1cc(CSCC(=O)O)cc(c1O)Cc1cc(CSCC(=O)O)cc(c1O)C2 | > 100 µM
OC(c1cc(-c2cccc(Cl)c2)nc2ccccc12)C1CCCCN1 (centres undefined) | 2.74 µM
Cc1cc([N+](=O)[O-])ccc1Sc1c2ccccc2nc2cc(Cl)ccc12 | > 100 µM
Cc1c(O)c2ccccc2oc1=O | > 100 µM
CCN(CC)CCNc1ccc(C)c2sc3cc(Cl)ccc3c(=O)c12 | 2.69 µM
O=C1/C(=N\O)c2ccccc2S1(=O)=O | > 100 µM
COc1cc2c(cc1C[C@H]1[C@@H]3C[C@H]4c5c(c6ccccc6n5C)C[C@@H]([C@@H]3CO[C@]1(C)OC(C)=O)N4C)c1c(n2C)C2C[C@H]3C(C(C)=O)=COC[C@H]3[C@H](C1)N2C | > 25 µM

* * *

Test system: OVCAR-3 ovarian
Method description: NCI tumour cell line growth inhibition, 48 h; in the data active means GI50 below about 0.43 µM; inactive means the rest
Possible outcomes: YES = active, NO = inactive

Molecule | Group label
COc1cc([C@@H]2c3cc4c(c(O)c3C[C@H]3COC(=O)[C@@H]32)OCO4)cc(OC)c1OC | YES
COC1=CC(c2ccc[nH]2)=N/C1=C\c1[nH]c(C)c(CC(=O)OCc2ccccc2)c1CCC(=O)OCc1ccccc1 | YES
COc1ccc(/C=C(/C(=O)N2CCN(c3ccccc3)CC2)c2cc(OC)c(OC)c(OC)c2)cc1N | YES
Cc1cc(Nc2ccc(OCc3ccccc3)cc2)nc2cc(O)ccc12 | NO
COc1ccc2sc3cccc(NCCN(C)C)c3c(=O)c2c1 | NO
COC(=O)[C@@H](C)C[C@H](Cc1cn(C)c2ccccc12)NC(=O)c1csc([C@@H](C[C@H](C(C)C)N(C)C(=O)[C@@H](NC(=O)[C@H]2CCCCN2C)C(C)C)OC(C)=O)n1 | YES
OC(c1cc(-c2cccc(Cl)c2)nc2ccccc12)C1CCCCN1 (configuration not stated) | NO
COc1cccc(CCC2CCCN(c3cc(C)nc(N)n3)C2)c1 (configuration not stated) | YES
C=C(C)[C@@H]1CC[C@]2(COCCC#N)CC[C@]3(C)[C@H](CC[C@@H]4[C@@](C)(CCCNCCC#N)[C@H](C(=C)C)CC[C@]43C)[C@@H]12 | NO
C[C@]12CCc3nc(Nc4cccc(O)c4)sc3C1=CC[C@@H]1[C@@H]2CC[C@]2(C)/C(=N\NC(N)=S)CC[C@@H]12 | NO
O=C1c2[nH]cc(CNC3CN4CCC3CC4)c2C(=O)c2c1c(O)c1ccccc1c2O (configuration not stated) | NO
CC(C)(C)N1CCC1CN (configuration not stated) | NO
CCCCCCCC/C=C/CCCCCCCC1=NC(C)(C)CN1CC(C)O (configuration not stated) | NO
CCOC(=O)c1ccccc1OC(=O)NNc1ccccc1 | NO
CCOC(=O)c1ccc(Nc2sc(C(=O)c3ccc(Br)cc3)c(N)c2C#N)cc1 | YES
CC[C@H](NC(=O)[C@H]1CCCCN1C)C(=O)N(C)[C@H](C[C@@H](OC(C)=O)c1nc(C(=O)N[C@@H](Cc2ccccc2)C[C@H](C)C(=O)O)cs1)C(C)C | YES
COc1ccc(N=Cc2c(O)ccc3c2oc2cc(Cl)c(O)c(Cl)c23)cc1 | NO
